- Test system: UACC-257 melanoma
- TEST SUMMARY: NCI tumour cell line growth inhibition, 48 h
REPORTED METRIC: TGI

[Q] Lab request: please report TGI under test system UACC-257 melanoma for c1ccc(CNn2nnc3ccccc32)cc1
[A] > 100 µM

[Q] State its TGI on UACC-257 melanoma: CCC[CH2][Sn]1([CH2]CCC)[O]CC(CN2CCCC2)[O]1 (stereo not drawn)
[A] 29.7 µM

[Q] Given the entry COc1cc(C2C(Cl)C(=O)N2NC(=O)c2ccc(NC(C)=O)cc2)cc(OC)c1OC (stereo not drawn) , what TGI was observed with UACC-257 melanoma?
[A] > 100 µM

[Q] Missing value: TGI, UACC-257 melanoma, entry NC(N)=N/N=C(\c1nc2ccc([N+](=O)[O-])cc2[nH]c1=O)C(O)c1ccc([N+](=O)[O-])cc1 (stereo not drawn) . Fill in?
[A] > 100 µM

[Q] Identify the measured TGI of Clc1nc(Cl)c(Cl)c(-c2ccccc2)n1 for UACC-257 melanoma.
[A] 44.2 µM

[Q] Lab note: need TGI with UACC-257 melanoma for entry CC12C(=O)CC(CC1=O)C2(C)C , please look it up.
[A] > 100 µM

[Q] Give UACC-257 melanoma TGI for Oc1c(CN2CCOCC2)ccc2cccnc12
[A] > 10 µM

[Q] Request: TGI, test system UACC-257 melanoma, entry CC(C)=CCC/C(C)=C/C=C/C(C)=C/C=C/C(C)=C/C=C/C=C(C)/C=C/C=C(C)/C=C/[C@H]1C(C(C)(C)O)CC[C@]1(C)O (stereo partly drawn)
[A] 59.2 µM

[Q] Tell me reported TGI for COC(C(O)CO)C(O)C(O)C(=O)NNc1ccccc1 (stereo not drawn) , tested with UACC-257 melanoma.
[A] > 100 µM

[Q] Find the measured TGI: item COc1cccc(-c2ccc3c4c2O[C@H]2C(=O)CC[C@@]5(O)[C@@H](C3)N(CC3CC3)CC[C@]425)c1 , target or system UACC-257 melanoma.
[A] 43.2 µM

[Q] Test system UACC-257 melanoma; read-out TGI; what value for O=C1C=C(C2=CC(=O)C(=O)c3ccccc32)c2ccccc2C1=O ?
[A] > 100 µM

[Q] Param readout= TGI; system= UACC-257 melanoma; entry= COC(=O)/C(=N\Nc1nnc(C)n1N)C(C#N)c1ccc(Cl)cc1 (stereo not drawn) ; returns value.
[A] > 100 µM

[Q] # get_value(readout= TGI, system= UACC-257 melanoma) for CC(=O)/C(C)=N/NC(=O)c1ccccc1O
[A] > 100 µM

====

- System: UACC-257 melanoma
- TEST SUMMARY: NCI tumour cell line growth inhibition, 48 h; in the data active = GI50 below about 0.43 µM; inactive = the rest
Returns: one label drawn from YES (active), NO (inactive)

[Q] GET /call?item= CN1CCN(CCCOc2ccc3nc(Nc4ccc(Cl)c(C(F)(F)F)c4)ccc3c2)CC1 returns the recorded outcome of this test.
[A] NO

[Q] Can you look up the reported call for O=C(NC1=CC(=O)c2ccccc2C1=O)c1ccccc1 for me?
[A] NO

[Q] Tell me the assay call for COc1ccc(-c2n[nH]nc2-c2cc(OC)c(OC)c(OC)c2)cc1 please.
[A] YES

[Q] Which outcome was entered for the compound CC(C)n1nc(-c2cc3cc(O)ccc3[nH]2)c2c(N)ncnc21 in this test?
[A] YES

[Q] Assay outcome for COc1cc2c(c(OC)c1OC)-c1ccc(OC)c(=O)cc1[C@@H](NC(=O)c1ccccc1)CC2 : what was it?
[A] NO

[Q] // outcome(item) with item = COC1=CC(=O)c2nc(-c3cccc(C)n3)[nH]c2C1=O
[A] NO

[Q] Please state the recorded outcome for this compound: COc1ccccc1CNCCCN1C(=O)c2ccc3c4c(ccc(c24)C1=O)C(=O)N(CCCOCCCCOCCCN)C3=O
[A] YES

[Q] Outcome logged for CC(C)(C)c1cc(C(C)(C)C)cc(S(=O)(=O)Nc2cc3ccccc3cc2C(=O)NCCN)c1 in this assay:
[A] NO

[Q] Record lookup: outcome of this test for CC(=O)[O-].CCN(CC)c1ccc(C=NCCN=Cc2ccc(N(CC)CC)cc2[O-])c([O-])c1.[Mn+3] ?
[A] NO
